Value source: ChEMBL document CHEMBL5058577

As shown below, each of these compounds has a reported Population Apoptotic (%) value.
# Test system: HEK-293T
# Measurement protocol: Multiplex assay against HEK293T
# Format: toxicity, cell-based
# Test context: human, 24 h, 1 µM, compound concentration 1 uM, replicate 1
Record the value in %, omitting the unit from your answer.

Before answering, review these 4 worked examples.
>  <Compound>
Cc1ccc(C(C)(O)c2nc3ccccc3s2)c(C)c1 (stereo not given)

>  <Unit descriptor>
%

>  <Population Apoptotic (%)>
26

$$$$
>  <Compound>
CN(C)CCCc1cc(C(=O)Nc2ccc(-c3ccncc3)cc2)ccc1O.Cl.Cl

>  <Unit descriptor>
%

>  <Population Apoptotic (%)>
25

$$$$
>  <Compound>
c1cc(OCCCN2CCCCC2)ccc1CN1CCCCC1

>  <Unit descriptor>
%

>  <Population Apoptotic (%)>
25

$$$$
>  <Compound>
CSCC[C@H](NC=O)C(=O)N[C@@H](CC(C)C)C(=O)N[C@@H](Cc1ccccc1)C(=O)O

>  <Unit descriptor>
%

>  <Population Apoptotic (%)>
21

$$$$

// next item, Population Apoptotic (%) requested
In: Query: Population Apoptotic (%); subject: CCOc1c2c(c(OCC)c3ncccc13)CN(c1ccc(CS(=O)(=O)NC(=O)Cc3ccccc3OC)cc1C)C2=O
Out: 35

###

# Test system: HEK-293T
# Measurement protocol: Multiplex assay against HEK293T
# Assay type: toxicity, cell-based
# Test context: human, 48 h, 10 µM, compound concentration 10 uM, replicate 2
We'd kindly ask you to apply these Population Hoechst High Intensity Objects (%) classes: bottom range = under 5%, center range = from 5% up to 10%, top range = 10% and over

Before answering, review these 4 worked examples.
>  <Compound>
CN(C)CCCc1cc(C(=O)Nc2ccc(-c3ccncc3)cc2)ccc1O.Cl.Cl

>  <Group>
top range

$$$$
>  <Compound>
O=C(O)Cc1ccccc1Nc1c(Cl)cccc1Cl [DICLOFENAC]

>  <Group>
bottom range

$$$$
>  <Compound>
CC1(COc2ccc3c(c2)ncn3-c2ccc3cccc(N4CCC(N)CC4)c3n2)COC1 [CRENOLANIB]

>  <Group>
top range

$$$$
>  <Compound>
O=C1COc2nccc(-c3ccccc3F)c2CN1Cc1cc(C(F)(F)F)cc(C(F)(F)F)c1

>  <Group>
bottom range

$$$$

In: Sort into band: CCNC1(C(N)=O)CCN(c2ncnc3c2nc(-c2ccccc2Cl)n3-c2ccc(Cl)cc2)CC1 [OTENABANT]
Out: top range

In: Same lookup for Oc1c(CN2CCN(c3ccccn3)CC2)cc(Cl)c2cccnc12 , please.
Out: top range

In: What do we get for Cc1ccc(/C(=C\CN2CCCC2)c2ccccn2)cc1 [TRIPROLIDINE] ?
Out: bottom range

###

# Test system: HEK-293T
# Measurement protocol: Multiplex assay against HEK293T
# Assay type: toxicity, cell-based
# Test context: human, 12 h, 1 µM, compound concentration 1 uM, replicate 1
Quantity measured: Population Tubulin-Different-Phenotype (%)
Please give a number only; it is taken to be in %.

Worked examples, 3 compounds total:
>  <Compound>
CC(=O)NCCc1c(Cc2ccccc2)[nH]c2ccccc12

>  <Unit descriptor>
%

>  <Reported>
39

$$$$
>  <Compound>
CCCN1CCC[C@@H]2Cc3n[nH]cc3C[C@H]21.Cl [QUINPIROLE HYDROCHLORIDE]

>  <Unit descriptor>
%

>  <Reported>
22

$$$$
>  <Compound>
COc1cc(NC(=O)CCN2CCC(OC(=O)Nc3ccccc3-c3ccccc3)CC2)c(Cl)cc1CNC[C@H](O)c1ccc(O)c2[nH]c(=O)ccc12

>  <Unit descriptor>
%

>  <Reported>
44

$$$$

In: Please give the measured Population Tubulin-Different-Phenotype (%) for this compound: O=C(NCCO)c1cccc(-c2cc(Nc3ccc(OC(F)(F)F)cc3)ncn2)c1
Out: 23

In: Same question, CCCn1c(=O)c2[nH]c(C3CCCC3)nc2n(CCC)c1=O this time
Out: 32
